- subject.of.test: CSF1R (human) (UniProt P07333)
- Sequence (P07333 whole entry, looked up): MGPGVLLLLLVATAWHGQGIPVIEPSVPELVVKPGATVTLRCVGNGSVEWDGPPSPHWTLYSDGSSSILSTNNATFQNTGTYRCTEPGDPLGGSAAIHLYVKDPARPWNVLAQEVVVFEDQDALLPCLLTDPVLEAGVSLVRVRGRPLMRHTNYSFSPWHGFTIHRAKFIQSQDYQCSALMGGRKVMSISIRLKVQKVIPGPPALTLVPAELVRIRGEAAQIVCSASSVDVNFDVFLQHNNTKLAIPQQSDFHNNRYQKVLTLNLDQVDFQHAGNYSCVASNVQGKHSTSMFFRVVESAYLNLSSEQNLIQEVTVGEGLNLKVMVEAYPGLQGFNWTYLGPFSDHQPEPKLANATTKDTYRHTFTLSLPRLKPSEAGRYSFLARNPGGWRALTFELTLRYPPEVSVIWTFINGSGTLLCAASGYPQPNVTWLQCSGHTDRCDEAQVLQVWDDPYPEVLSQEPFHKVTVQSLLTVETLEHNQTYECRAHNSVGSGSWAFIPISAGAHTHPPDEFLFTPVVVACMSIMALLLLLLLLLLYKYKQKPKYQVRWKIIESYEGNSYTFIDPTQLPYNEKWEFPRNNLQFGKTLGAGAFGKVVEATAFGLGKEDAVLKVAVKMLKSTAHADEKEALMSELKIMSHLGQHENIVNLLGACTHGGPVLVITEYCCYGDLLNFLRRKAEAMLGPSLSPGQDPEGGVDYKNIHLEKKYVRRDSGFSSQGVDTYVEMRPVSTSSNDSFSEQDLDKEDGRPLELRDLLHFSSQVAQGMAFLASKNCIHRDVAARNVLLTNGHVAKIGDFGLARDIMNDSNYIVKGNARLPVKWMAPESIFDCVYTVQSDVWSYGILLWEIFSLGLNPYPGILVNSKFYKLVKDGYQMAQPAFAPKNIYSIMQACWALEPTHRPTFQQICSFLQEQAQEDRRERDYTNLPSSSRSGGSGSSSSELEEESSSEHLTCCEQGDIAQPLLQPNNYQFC
- protocol.description: radiometric filter-binding kinase assay, Kinase HotSpot
- test.conditions: compound 0.5 µM; ATP 10 µM
# Lookup of reported residual activity keyed by entry
measured.attribute: residual activity

[[record]]
smiles_repr = "O=C(Nc1cccc(Nc2cc(Nc3cccc(C(F)(F)F)c3)ncn2)c1)C1CC1"
subject_of_test = "CSF1R (human) (UniProt P07333)"
measured = "99.9%"

[[record]]
smiles_repr = "O=C1NC(=O)/C(=C\\c2ccc3nccnc3c2)S1"
subject_of_test = "CSF1R (human) (UniProt P07333)"
measured = "110%"

[[record]]
smiles_repr = "O=C1NC(=O)C(c2cn(CCCO)c3ncccc23)=C1c1cnccn1"
subject_of_test = "CSF1R (human) (UniProt P07333)"
measured = "98.4%"

[[record]]
smiles_repr = "O=C(CCCc1ccc(-c2ccccc2F)cc1)Nc1ccc(O)cc1"
subject_of_test = "CSF1R (human) (UniProt P07333)"
measured = "104%"

[[record]]
smiles_repr = "O=C1Cc2c([nH]c3ccc(Br)cc23)-c2ccccc2N1"
subject_of_test = "CSF1R (human) (UniProt P07333)"
measured = "92.6%"

[[record]]
smiles_repr = "COc1ccc(CNC(=O)Nc2ncc([N+](=O)[O-])s2)cc1"
subject_of_test = "CSF1R (human) (UniProt P07333)"
measured = "99.2%"


* * *

- subject.of.test: PRKG2 (human)
- protocol.description: radiometric filter-binding kinase assay, Kinase HotSpot
- test.conditions: compound 0.5 µM; ATP 10 µM
measured.attribute: residual activity

[[record]]
smiles_repr = "Cn1nc2c3c(cccc31)C(=O)c1ccccc1-2"
measured = "105%"

[[record]]
smiles_repr = "CN(C)C[C@H]1CCn2c(c(C3=C(c4cn(C)c5ccccc45)C(=O)NC3=O)c3ccccc32)C1"
measured = "90.7%"

[[record]]
smiles_repr = "O=C1NC(=O)/C(=C\\c2ccc3nccnc3c2)S1"
measured = "106%"

[[record]]
smiles_repr = "O=C(O)/C=C/c1cc(Br)c(Br)c(Br)c1Br"
measured = "80.3%"

[[record]]
smiles_repr = "CCN(CC)CCCCN1c2ccccc2Oc2ccc(Cl)cc21"
measured = "94.4%"

[[record]]
smiles_repr = "COc1ccc(CNC(=O)Nc2ncc([N+](=O)[O-])s2)cc1"
measured = "100%"

[[record]]
smiles_repr = "CC(C)c1nn(-c2c(Cl)cccc2Cl)c2nc(Cc3ccc(OCCO)cc3)nc(O)c12"
measured = "61.6%"

[[record]]
smiles_repr = "Oc1ccc(Nc2nc(-c3ccc(Cl)cc3)cs2)cc1"
measured = "92.9%"

[[record]]
smiles_repr = "CC(C)[C@H](CO)Nc1nc(Nc2cc(N)cc(Cl)c2)c2ncn(C(C)C)c2n1"
measured = "88.8%"

[[record]]
smiles_repr = "COc1cc2ncc(-c3ccccc3)nc2cc1OC"
measured = "83.6%"

[[record]]
smiles_repr = "COc1ccc(OC)c2c(=S)c3ccccc3[nH]c12"
measured = "62.2%"


* * *

- subject.of.test: UniProt Q15208
- Sequence (Q15208 whole entry, looked up): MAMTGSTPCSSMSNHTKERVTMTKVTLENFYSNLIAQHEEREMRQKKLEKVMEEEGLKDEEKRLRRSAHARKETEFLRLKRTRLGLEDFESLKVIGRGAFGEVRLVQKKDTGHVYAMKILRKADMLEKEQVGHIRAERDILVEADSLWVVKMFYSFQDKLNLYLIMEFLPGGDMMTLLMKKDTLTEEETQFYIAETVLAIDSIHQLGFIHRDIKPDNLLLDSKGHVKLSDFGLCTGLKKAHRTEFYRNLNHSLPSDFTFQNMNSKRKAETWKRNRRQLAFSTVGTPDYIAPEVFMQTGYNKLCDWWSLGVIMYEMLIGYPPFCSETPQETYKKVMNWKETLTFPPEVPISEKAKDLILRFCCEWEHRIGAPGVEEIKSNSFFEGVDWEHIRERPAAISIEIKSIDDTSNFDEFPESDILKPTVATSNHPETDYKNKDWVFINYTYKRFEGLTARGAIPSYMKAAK
- protocol.description: radiometric filter-binding kinase assay, Kinase HotSpot
- test.conditions: compound 0.5 µM; ATP 10 µM
measured.attribute: residual activity (%)

[[record]]
smiles_repr = "Oc1ccc(Nc2nc(-c3ccc(Cl)cc3)cs2)cc1"
subject_of_test = "UniProt Q15208"
measured_attribute = "residual activity"
measured = 98.2

[[record]]
smiles_repr = "O=C1NC(=O)/C(=C\\c2ccc3nccnc3c2)S1"
subject_of_test = "UniProt Q15208"
measured_attribute = "residual activity"
measured = 99.6

[[record]]
smiles_repr = "O=C(CCCc1ccc(-c2ccccc2F)cc1)Nc1ccc(O)cc1"
subject_of_test = "UniProt Q15208"
measured_attribute = "residual activity"
measured = 109

[[record]]
smiles_repr = "COc1cc2ncc(-c3ccccc3)nc2cc1OC"
subject_of_test = "UniProt Q15208"
measured_attribute = "residual activity"
measured = 95.9

[[record]]
smiles_repr = "CN(C)C[C@H]1CCn2c(c(C3=C(c4cn(C)c5ccccc45)C(=O)NC3=O)c3ccccc32)C1"
subject_of_test = "UniProt Q15208"
measured_attribute = "residual activity"
measured = 96.7

[[record]]
smiles_repr = "Cn1nc2c3c(cccc31)C(=O)c1ccccc1-2"
subject_of_test = "UniProt Q15208"
measured_attribute = "residual activity"
measured = 98.5


* * *

Quick list: residual activity per entry.
- subject.of.test: NEK2 (human)
- protocol.description: radiometric filter-binding kinase assay, Kinase HotSpot
- test.conditions: compound 0.5 µM; ATP 10 µM
measured.attribute: residual activity (%)

[[record]]
smiles_repr = "CCN(CC)CCCCN1c2ccccc2Oc2ccc(Cl)cc21"
measured = 101

[[record]]
smiles_repr = "COc1ccc(CNC(=O)Nc2ncc([N+](=O)[O-])s2)cc1"
measured = 99.1

[[record]]
smiles_repr = "CC(C)[C@H](CO)Nc1nc(Nc2cc(N)cc(Cl)c2)c2ncn(C(C)C)c2n1"
measured = 94.4

[[record]]
smiles_repr = "CCn1cnc2c(Nc3cccc(Cl)c3)nc(N[C@@H]3CCCC[C@@H]3N)nc21"
measured = 100

[[record]]
smiles_repr = "O=C1Cc2c([nH]c3ccc(Br)cc23)-c2ccccc2N1"
measured = 87.1

[[record]]
smiles_repr = "Oc1ccc(Nc2nc(-c3ccc(Cl)cc3)cs2)cc1"
measured = 110

[[record]]
smiles_repr = "O=C(Nc1cccc(Nc2cc(Nc3cccc(C(F)(F)F)c3)ncn2)c1)C1CC1"
measured = 99.5

[[record]]
smiles_repr = "Cc1nc2cc3nc(-c4cccs4)cnc3cc2n1C"
measured = 97

[[record]]
smiles_repr = "Cn1nc2c3c(cccc31)C(=O)c1ccccc1-2"
measured = 88.2

[[record]]
smiles_repr = "O=C1NC(=O)C(c2cn(CCCO)c3ncccc23)=C1c1cnccn1"
measured = 97.5

[[record]]
smiles_repr = "O=C1Nc2ccccc2/C1=C1\\Nc2ccccc2\\C1=N/O"
measured = 109


* * *

# residual activity per entry
- subject.of.test: MAP3K8 (human) (UniProt P41279)
- Sequence (P41279 whole entry, looked up): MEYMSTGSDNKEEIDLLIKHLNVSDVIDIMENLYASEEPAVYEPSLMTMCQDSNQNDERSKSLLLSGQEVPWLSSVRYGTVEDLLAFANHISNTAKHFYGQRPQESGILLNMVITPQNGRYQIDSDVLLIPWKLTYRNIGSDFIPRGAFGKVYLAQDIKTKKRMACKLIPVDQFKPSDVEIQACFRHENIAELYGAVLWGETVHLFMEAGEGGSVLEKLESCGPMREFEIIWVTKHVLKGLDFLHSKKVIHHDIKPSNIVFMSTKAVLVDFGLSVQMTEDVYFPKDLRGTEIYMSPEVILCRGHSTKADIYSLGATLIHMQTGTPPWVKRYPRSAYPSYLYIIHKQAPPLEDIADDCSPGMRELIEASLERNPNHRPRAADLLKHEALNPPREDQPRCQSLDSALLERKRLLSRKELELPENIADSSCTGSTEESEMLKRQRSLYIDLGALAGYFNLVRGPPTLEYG
- protocol.description: radiometric filter-binding kinase assay, Kinase HotSpot
- test.conditions: compound 0.5 µM; ATP 10 µM
measured.attribute: residual activity (%)

[[record]]
smiles_repr = "CC(C)[C@H](CO)Nc1nc(Nc2cc(N)cc(Cl)c2)c2ncn(C(C)C)c2n1"
subject_of_test = "MAP3K8 (human) (UniProt P41279)"
measured_attribute = "residual activity"
measured = 109

[[record]]
smiles_repr = "CN([C@@H](Cc1ccc(OS(=O)(=O)c2cccc3cnccc23)cc1)C(=O)N1CCN(c2ccccc2)CC1)S(=O)(=O)c1cccc2cnccc12"
subject_of_test = "MAP3K8 (human) (UniProt P41279)"
measured_attribute = "residual activity"
measured = 99.3

[[record]]
smiles_repr = "O=C1NC(=O)C(c2c[nH]c3ccccc23)=C1c1c[nH]c2ccccc12"
subject_of_test = "MAP3K8 (human) (UniProt P41279)"
measured_attribute = "residual activity"
measured = 90.8

[[record]]
smiles_repr = "O=C1Cc2c([nH]c3ccc(Br)cc23)-c2ccccc2N1"
subject_of_test = "MAP3K8 (human) (UniProt P41279)"
measured_attribute = "residual activity"
measured = 98.6

[[record]]
smiles_repr = "COc1cc2ncc(-c3ccccc3)nc2cc1OC"
subject_of_test = "MAP3K8 (human) (UniProt P41279)"
measured_attribute = "residual activity"
measured = 108

[[record]]
smiles_repr = "O=C(Nc1cccc(Nc2cc(Nc3cccc(C(F)(F)F)c3)ncn2)c1)C1CC1"
subject_of_test = "MAP3K8 (human) (UniProt P41279)"
measured_attribute = "residual activity"
measured = 98.4

[[record]]
smiles_repr = "Cn1sc(=O)n(Cc2ccccc2)c1=O"
subject_of_test = "MAP3K8 (human) (UniProt P41279)"
measured_attribute = "residual activity"
measured = 97.1

[[record]]
smiles_repr = "CC(=O)O/N=C1\\C(=C2\\C(=O)Nc3cc(Br)ccc32)Nc2ccccc21"
subject_of_test = "MAP3K8 (human) (UniProt P41279)"
measured_attribute = "residual activity"
measured = 104

[[record]]
smiles_repr = "Nc1nccc(-c2c(-c3ccc(F)cc3)ncn2C2CCNCC2)n1"
subject_of_test = "MAP3K8 (human) (UniProt P41279)"
measured_attribute = "residual activity"
measured = 102

[[record]]
smiles_repr = "COc1ccc(OC)c2c(=S)c3ccccc3[nH]c12"
subject_of_test = "MAP3K8 (human) (UniProt P41279)"
measured_attribute = "residual activity"
measured = 111


* * *

Measured residual activity, listed per entry for reference.
- subject.of.test: MARK4 (human)
- protocol.description: radiometric filter-binding kinase assay, Kinase HotSpot
- test.conditions: compound 0.5 µM; ATP 10 µM
measured.attribute: residual activity (%)

[[record]]
compound = "O=C1NC(=O)C(c2c[nH]c3ccccc23)=C1c1c[nH]c2ccccc12"
measured = 95.3

[[record]]
compound = "CN(C)C[C@H]1CCn2c(c(C3=C(c4cn(C)c5ccccc45)C(=O)NC3=O)c3ccccc32)C1"
measured = 93.9

[[record]]
compound = "CC(C)[C@H](CO)Nc1nc(Nc2cc(N)cc(Cl)c2)c2ncn(C(C)C)c2n1"
measured = 71.2

[[record]]
compound = "O=C1Nc2ccccc2/C1=C1\\Nc2ccccc2\\C1=N/O"
measured = 56.2

[[record]]
compound = "O=C1Cc2c([nH]c3ccc(Br)cc23)-c2ccccc2N1"
measured = 60.2

[[record]]
compound = "Nc1nnc2[nH]c3ccccc3nc1-2"
measured = 99.8

[[record]]
compound = "Cn1sc(=O)n(Cc2ccccc2)c1=O"
measured = 85.1

[[record]]
compound = "O=C(O)/C=C/c1cc(Br)c(Br)c(Br)c1Br"
measured = 93.1

[[record]]
compound = "CN([C@@H](Cc1ccc(OS(=O)(=O)c2cccc3cnccc23)cc1)C(=O)N1CCN(c2ccccc2)CC1)S(=O)(=O)c1cccc2cnccc12"
measured = 98.8

[[record]]
compound = "Cn1cnc2cc3c(Nc4cccc(Br)c4)ncnc3cc21"
measured = 105

[[record]]
compound = "COc1cc2ncc(-c3ccccc3)nc2cc1OC"
measured = 85.3

[[record]]
compound = "CCN(CC)CCCCN1c2ccccc2Oc2ccc(Cl)cc21"
measured = 97.2

[[record]]
compound = "CC(=O)O/N=C1\\C(=C2\\C(=O)Nc3cc(Br)ccc32)Nc2ccccc21"
measured = 77.6

[[record]]
compound = "COc1cc2ncnc(N3CCN(C(=O)Nc4ccc(Oc5ccccc5)cc4)CC3)c2cc1OC"
measured = 76.5

[[record]]
compound = "O=C1Nc2ccccc2/C1=C1/Nc2ccccc2/C1=N\\OCCC(O)CO (configuration not stated)"
measured = 43.5

[[record]]
compound = "Oc1ccc(Nc2nc(-c3ccc(Cl)cc3)cs2)cc1"
measured = 103

[[record]]
compound = "COc1ccc(CNC(=O)Nc2ncc([N+](=O)[O-])s2)cc1"
measured = 92.2

[[record]]
compound = "O=C1NC(=O)/C(=C\\c2ccc3nccnc3c2)S1"
measured = 89.9

[[record]]
compound = "Nc1nccc(-c2c(-c3ccc(F)cc3)ncn2C2CCNCC2)n1"
measured = 97.4

[[record]]
compound = "Cn1nc2c3c(cccc31)C(=O)c1ccccc1-2"
measured = 91.1

[[record]]
compound = "O=C(Nc1cccc(Nc2cc(Nc3cccc(C(F)(F)F)c3)ncn2)c1)C1CC1"
measured = 101

[[record]]
compound = "Cc1nc2cc3nc(-c4cccs4)cnc3cc2n1C"
measured = 105

[[record]]
compound = "O=C1NC(=O)C(c2cn(CCCO)c3ncccc23)=C1c1cnccn1"
measured = 93.9

[[record]]
compound = "O=C(CCCc1ccc(-c2ccccc2F)cc1)Nc1ccc(O)cc1"
measured = 124

[[record]]
compound = "CC(C)c1nn(-c2c(Cl)cccc2Cl)c2nc(Cc3ccc(OCCO)cc3)nc(O)c12"
measured = 99.5

[[record]]
compound = "COc1ccc(OC)c2c(=S)c3ccccc3[nH]c12"
measured = 95.7

[[record]]
compound = "CCn1cnc2c(Nc3cccc(Cl)c3)nc(N[C@@H]3CCCC[C@@H]3N)nc21"
measured = 95.5

